Test: Caspase-3/7 induction in CHO-K1 cells by small molecules, qHTS cell viability counter screen (AID 1346979); also: nearly all actives have a fitted effect of over 35% in size
Conditions: CellTiter-Fluor fluorescence, 17 h; series mostly up to 92.4 µM
Inconclusive results are not listed. The source made the active and inactive calls. Calls follow the shape of the dose curve; as a rule, active = well fitted cell-killing curve with a large enough effect in the repeat runs; inconclusive = weak or mixed curves, or effect the other way; inactive = no such curve, though single readings can be large or run the other way.
Your response should consist of one outcome taken from true (active), false (inactive)

// below: answered compounds
COCCCC/C(=N\OCCN)c1ccc(C(F)(F)F)cc1	false
C/C=C1/C(=O)C[C@H]2[C@@H]3CCC4=CC(=O)CC[C@]4(C)[C@H]3CC[C@]12C	true
O=CC=C(c1ccccc1)c1ccccc1	true
O=C(c1ccc(F)cc1)C1CCN(CCn2c(=O)[nH]c3ccccc3c2=O)CC1	false
O=C(Nc1cccc(Cl)c1)OCC#CCCl	true
CC(C)OC(=O)c1cc2c(OCC(O)CNC(C)(C)C)cccc2[nH]1 (stereo not given)	false
COc1c(C)c2c(c(O)c1C/C=C(\C)CCC(=O)O)C(=O)OC2	true
CCCCC(CC)CN=C(N)NC(N)=NCCCCCCN=C(N)NC(N)=NCC(CC)CCCC (stereo not given)	true
[Cl][Au]([Cl])[Cl]	true
NNc1nc(-c2ccc([N+](=O)[O-])cc2)cs1	true

Asked: What is the recorded call for this compound in the test? O=C(OC[C@H]1O[C@@H](OC(=O)c2cc(O)c(O)c(OC(=O)c3cc(O)c(O)c(O)c3)c2)[C@H](OC(=O)c2cc(O)c(O)c(OC(=O)c3cc(O)c(O)c(O)c3)c2)[C@@H](OC(=O)c2cc(O)c(O)c(OC(=O)c3cc(O)c(O)c(O)c3)c2)[C@@H]1OC(=O)c1cc(O)c(O)c(OC(=O)c2cc(O)c(O)c(O)c2)c1)c1cc(O)c(O)c(OC(=O)c2cc(O)c(O)c(O)c2)c1
Given back: true

Asked: What is the recorded call for this compound in the test? Nc1cc(C(F)(F)F)ccc1S
Given back: true

----------
Experiment: qHTS assay to identify small molecule agonists of H2AX - cell viability counter screen (AID 1224847); also: nearly all actives have a fitted effect of over 30% in size
Details: CHO-K1 viability, CellTiter-Glo luminescence, 3 h; series mostly up to 70.9 µM
Inconclusive results are not listed. Activity calls are given as the source filed them. Calls follow the shape of the full dose curve.
Your response should consist of one outcome taken from active, inactive

// below: answered compounds
CCCCCCCCCCCC[N+](C)(C)CCCCCCCCCCCC	active
O=C1c2ccccc2Cc2ccccc21	inactive
NNc1nc(-c2ccc([N+](=O)[O-])cc2)cs1	active
Clc1ccc2cc3ccccc3cc2c1	inactive
Cc1cc(=O)oc2cc(N(C)C)ccc12	inactive
CCCCCCCCCCn1cc[n+](CCCCCCCCCC)c1C	active

Asked: What is the recorded call for this compound in the test? O=C(NO)C1(NS(=O)(=O)c2ccc(Oc3ccc(F)cc3)cc2)CCOCC1
Given back: inactive

----------
Assay: qHTS assay to identify small molecule antagonists of the progesterone receptor (PR) signaling pathway - cell viability counter screen (AID 1346798); also: nearly all actives have a fitted effect of over 50% in size
Conditions: PR-UAS-bla HEK293T viability, CellTiter-Glo luminescence, 16 h; series mostly up to 92.4 µM
Records with an inconclusive call do not appear. Calls of active or inactive are those of the source. Calls come from the whole dose curve; as a rule, active = well fitted cell-killing curve with a large enough effect in the repeat runs; inconclusive = weak or mixed curves, or effect the other way; inactive = no such curve, though single readings can be large or run the other way.
Your response should consist of one outcome taken from Y for active, N for inactive

// below: answered molecules
O=S1(=O)CC(Cl)(Cl)C(Cl)(Cl)C1	Y
COc1cc(-c2ccc(N=C=O)c(OC)c2)ccc1N=C=O	N
c1ccc(CSCc2ccccc2)cc1	N
O=C(Oc1ccccc1)c1ccccc1C(=O)Oc1ccccc1	N
CCCCCCCCOC(=O)c1ccc(O)cc1	N

Asked: What is the recorded call for this molecule in the test? COc1cc(-c2nc(NC(=O)c3cc4cc(C)cc(C)c4n3CC(=O)O)sc2CCC2CCCCC2)c(OC)cc1Cl
Given back: Y

Asked: What is the recorded call for this molecule in the test? Cc1cccc(S(=O)(=O)O)c1C
Given back: N

Asked: What is the recorded call for this molecule in the test? O=CC=C(c1ccccc1)c1ccccc1
Given back: Y

Asked: What is the recorded call for this molecule in the test? NC(=O)NS(=O)(=O)c1ccc(N)cc1
Given back: N

Asked: What is the recorded call for this molecule in the test? O=C(OCC1CO1)C1CCCCC1C(=O)OCC1CO1 (stereo not drawn)
Given back: N

Asked: What is the recorded call for this molecule in the test? Cc1onc(-c2c(Cl)cccc2Cl)c1C(=O)N[C@@H]1C(=O)N2[C@@H]1SC(C)(C)[C@@H]2C(=O)O
Given back: N

Asked: What is the recorded call for this molecule in the test? O=C1CCCCCN1SSN1CCCCCC1=O
Given back: N

Asked: What is the recorded call for this molecule in the test? C[n+]1ccn(Cc2ccccc2)c1
Given back: N

Cited source: PubChem BioAssay (Tox21)
